molecular target: Cholinesterase (Equus caballus)
Sequence (P81908 whole entry): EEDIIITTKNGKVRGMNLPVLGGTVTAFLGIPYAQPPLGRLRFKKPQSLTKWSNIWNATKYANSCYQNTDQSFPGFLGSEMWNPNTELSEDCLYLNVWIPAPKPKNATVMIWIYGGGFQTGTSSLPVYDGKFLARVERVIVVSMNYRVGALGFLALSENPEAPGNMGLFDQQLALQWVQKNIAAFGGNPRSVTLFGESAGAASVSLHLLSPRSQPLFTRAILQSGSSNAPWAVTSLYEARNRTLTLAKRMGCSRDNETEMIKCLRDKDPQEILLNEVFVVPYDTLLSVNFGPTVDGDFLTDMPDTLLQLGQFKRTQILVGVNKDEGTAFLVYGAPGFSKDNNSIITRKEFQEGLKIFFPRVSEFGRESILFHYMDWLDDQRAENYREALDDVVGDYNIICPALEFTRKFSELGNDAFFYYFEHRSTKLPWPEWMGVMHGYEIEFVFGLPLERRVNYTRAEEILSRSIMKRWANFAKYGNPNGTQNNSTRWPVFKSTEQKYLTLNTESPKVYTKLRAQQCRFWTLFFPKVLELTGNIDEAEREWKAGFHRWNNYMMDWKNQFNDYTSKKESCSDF
Documented pIC50 across a set of compounds
# pIC50 is unitless: minus log10 of the molar concentration; print number only

- compound: "CCN(CC)CCCOc1ccc(/C=C2\\CCn3c2nc2ccccc2c3=O)cc1"
  pIC50: 5.15
- compound: "O=c1c2ccccc2nc2n1CC/C2=C\\c1ccc(OCCCN2CCCCC2)cc1"
  pIC50: 5.78

Query: May I ask what pIC50 has been recorded for `O=c1c2ccccc2nc2n1CC/C2=C\c1ccc(OCCN2CCCCC2)cc1` ?
Reply: 5.52

Query: Could you do the same for O=c1c2ccccc2nc2n1CCC2Cc1ccc(OCCN2CCCCC2)cc1 (stereo not drawn) , please?
Reply: 5.08

Query: Consider next the compound O=c1c2ccccc2nc2n1CCC2Cc1ccc(OCCCN2CCCCC2)cc1 (stereo not drawn) in the same way.
Reply: 5.24

Query: And then `CCN(CC)CCOc1ccc(/C=C2\CCn3c2nc2ccccc2c3=O)cc1` , what is it?
Reply: 4.90

====

molecular target: Acetylcholinesterase (Electrophorus electricus, UniProt O42275)
Sequence (O42275 whole entry): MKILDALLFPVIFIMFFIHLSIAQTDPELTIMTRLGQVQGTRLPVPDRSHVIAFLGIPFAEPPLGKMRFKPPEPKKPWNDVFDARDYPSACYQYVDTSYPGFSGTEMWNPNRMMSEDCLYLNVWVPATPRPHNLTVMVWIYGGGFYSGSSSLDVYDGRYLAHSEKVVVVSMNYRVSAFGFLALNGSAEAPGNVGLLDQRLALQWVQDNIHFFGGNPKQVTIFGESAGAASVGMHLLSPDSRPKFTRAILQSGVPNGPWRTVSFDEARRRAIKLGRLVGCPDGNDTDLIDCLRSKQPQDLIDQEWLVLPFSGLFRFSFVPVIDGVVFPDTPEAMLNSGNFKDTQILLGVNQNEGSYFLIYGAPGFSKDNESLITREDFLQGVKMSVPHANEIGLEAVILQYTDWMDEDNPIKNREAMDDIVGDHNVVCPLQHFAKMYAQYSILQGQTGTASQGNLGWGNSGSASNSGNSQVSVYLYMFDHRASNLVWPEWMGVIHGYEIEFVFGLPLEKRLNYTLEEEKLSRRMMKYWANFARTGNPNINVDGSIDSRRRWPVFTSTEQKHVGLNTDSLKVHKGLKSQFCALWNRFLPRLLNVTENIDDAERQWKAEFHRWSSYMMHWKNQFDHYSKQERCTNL
Binary label based on IC50 with cut-off 2 µM: below gives 1, not below gives 0.

- molecule: "CCN(CC)CCOc1ccc(/C=C2\\CCn3c2nc2ccccc2c3=O)cc1"
  target_of_assay: "Acetylcholinesterase (Electrophorus electricus, UniProt O42275)"
  category_label: 1
- molecule: "O=c1c2ccccc2nc2n1CC/C2=C\\c1ccc(OCCN2CCCCC2)cc1"
  target_of_assay: "Acetylcholinesterase (Electrophorus electricus, UniProt O42275)"
  category_label: 1
- molecule: "O=c1c2ccccc2nc2n1CCC2Cc1ccc(OCCCN2CCCCC2)cc1 (stereo not drawn)"
  target_of_assay: "Acetylcholinesterase (Electrophorus electricus, UniProt O42275)"
  category_label: 0
- molecule: "CCN(CC)CCCOc1ccc(/C=C2\\CCn3c2nc2ccccc2c3=O)cc1"
  target_of_assay: "Acetylcholinesterase (Electrophorus electricus, UniProt O42275)"
  category_label: 0
- molecule: "O=c1c2ccccc2nc2n1CC/C2=C\\c1ccc(OCCCN2CCCCC2)cc1"
  target_of_assay: "Acetylcholinesterase (Electrophorus electricus, UniProt O42275)"
  category_label: 1
- molecule: "CCN(CC)CCCOc1ccc(CC2CCn3c2nc2ccccc2c3=O)cc1 (stereo not drawn)"
  target_of_assay: "Acetylcholinesterase (Electrophorus electricus, UniProt O42275)"
  category_label: 0
- molecule: "CCN(CC)CCOc1ccc(CC2CCn3c2nc2ccccc2c3=O)cc1 (stereo not drawn)"
  target_of_assay: "Acetylcholinesterase (Electrophorus electricus, UniProt O42275)"
  category_label: 1

Read the next record carefully.
Query: Input O=c1c2ccccc2nc2n1CCC2Cc1ccc(OCCN2CCCCC2)cc1 (stereo not drawn) ; condition: IC50 strictly below 2 µM. Does it hold?
Reply: 1

====

target: Acetylcholinesterase (Homo sapiens)
Sequence (P22303 whole entry): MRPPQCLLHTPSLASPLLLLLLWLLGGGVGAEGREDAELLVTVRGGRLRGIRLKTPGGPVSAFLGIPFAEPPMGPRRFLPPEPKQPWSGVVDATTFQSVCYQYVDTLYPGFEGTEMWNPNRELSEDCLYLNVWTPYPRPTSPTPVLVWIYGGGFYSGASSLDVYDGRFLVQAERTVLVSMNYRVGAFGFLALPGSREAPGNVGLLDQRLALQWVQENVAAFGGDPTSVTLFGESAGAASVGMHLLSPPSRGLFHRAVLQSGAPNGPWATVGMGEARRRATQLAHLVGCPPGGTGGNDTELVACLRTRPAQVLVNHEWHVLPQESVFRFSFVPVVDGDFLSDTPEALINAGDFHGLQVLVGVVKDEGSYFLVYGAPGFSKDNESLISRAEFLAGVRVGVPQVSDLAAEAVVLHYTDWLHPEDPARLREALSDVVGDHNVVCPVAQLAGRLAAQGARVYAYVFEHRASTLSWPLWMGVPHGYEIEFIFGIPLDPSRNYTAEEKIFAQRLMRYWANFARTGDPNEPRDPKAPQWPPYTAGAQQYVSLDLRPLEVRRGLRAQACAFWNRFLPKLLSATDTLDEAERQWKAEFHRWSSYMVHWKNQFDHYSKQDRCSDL
observed_property: pIC50
Here pIC50 is given on a logarithmic scale as minus log10 of the concentration in mol/L.

Query: Can you look up the measured pIC50 of O=c1c2ccccc2nc2n1CCC2 [DEOXYVASICINONE] for me?
Reply: 4.08

====

biological target: Cholinesterase (Homo sapiens, UniProt P06276)
Sequence (P06276 whole entry): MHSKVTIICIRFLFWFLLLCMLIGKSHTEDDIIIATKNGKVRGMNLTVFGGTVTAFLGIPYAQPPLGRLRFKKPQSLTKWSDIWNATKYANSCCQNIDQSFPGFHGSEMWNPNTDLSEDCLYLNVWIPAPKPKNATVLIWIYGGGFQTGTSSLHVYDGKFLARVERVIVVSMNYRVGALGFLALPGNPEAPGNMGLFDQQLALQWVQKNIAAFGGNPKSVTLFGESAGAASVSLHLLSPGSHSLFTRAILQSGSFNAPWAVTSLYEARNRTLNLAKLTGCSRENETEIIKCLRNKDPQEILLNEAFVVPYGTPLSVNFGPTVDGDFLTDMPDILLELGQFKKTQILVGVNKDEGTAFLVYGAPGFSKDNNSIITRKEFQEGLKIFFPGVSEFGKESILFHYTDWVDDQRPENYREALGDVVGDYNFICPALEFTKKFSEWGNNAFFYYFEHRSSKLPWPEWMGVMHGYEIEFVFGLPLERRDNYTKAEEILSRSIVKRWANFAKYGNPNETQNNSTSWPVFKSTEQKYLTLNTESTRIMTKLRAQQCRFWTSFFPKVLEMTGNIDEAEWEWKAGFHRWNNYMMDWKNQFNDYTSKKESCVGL
observed_property: pIC50
Give only the number. pIC50 is defined as minus log10 of concentration in molar units.

Query: Tell me the measured pIC50 of `O=c1c2ccccc2nc2n1CCC2` , please.
Reply: 4.60
